Data provenance is the kinase profiling compilation of Christmann-Franck et al. (2016).

# TARGET_OF_ASSAY: ERBB2 (human) (UniProt P04626)
# Sequence (P04626 whole entry, looked up): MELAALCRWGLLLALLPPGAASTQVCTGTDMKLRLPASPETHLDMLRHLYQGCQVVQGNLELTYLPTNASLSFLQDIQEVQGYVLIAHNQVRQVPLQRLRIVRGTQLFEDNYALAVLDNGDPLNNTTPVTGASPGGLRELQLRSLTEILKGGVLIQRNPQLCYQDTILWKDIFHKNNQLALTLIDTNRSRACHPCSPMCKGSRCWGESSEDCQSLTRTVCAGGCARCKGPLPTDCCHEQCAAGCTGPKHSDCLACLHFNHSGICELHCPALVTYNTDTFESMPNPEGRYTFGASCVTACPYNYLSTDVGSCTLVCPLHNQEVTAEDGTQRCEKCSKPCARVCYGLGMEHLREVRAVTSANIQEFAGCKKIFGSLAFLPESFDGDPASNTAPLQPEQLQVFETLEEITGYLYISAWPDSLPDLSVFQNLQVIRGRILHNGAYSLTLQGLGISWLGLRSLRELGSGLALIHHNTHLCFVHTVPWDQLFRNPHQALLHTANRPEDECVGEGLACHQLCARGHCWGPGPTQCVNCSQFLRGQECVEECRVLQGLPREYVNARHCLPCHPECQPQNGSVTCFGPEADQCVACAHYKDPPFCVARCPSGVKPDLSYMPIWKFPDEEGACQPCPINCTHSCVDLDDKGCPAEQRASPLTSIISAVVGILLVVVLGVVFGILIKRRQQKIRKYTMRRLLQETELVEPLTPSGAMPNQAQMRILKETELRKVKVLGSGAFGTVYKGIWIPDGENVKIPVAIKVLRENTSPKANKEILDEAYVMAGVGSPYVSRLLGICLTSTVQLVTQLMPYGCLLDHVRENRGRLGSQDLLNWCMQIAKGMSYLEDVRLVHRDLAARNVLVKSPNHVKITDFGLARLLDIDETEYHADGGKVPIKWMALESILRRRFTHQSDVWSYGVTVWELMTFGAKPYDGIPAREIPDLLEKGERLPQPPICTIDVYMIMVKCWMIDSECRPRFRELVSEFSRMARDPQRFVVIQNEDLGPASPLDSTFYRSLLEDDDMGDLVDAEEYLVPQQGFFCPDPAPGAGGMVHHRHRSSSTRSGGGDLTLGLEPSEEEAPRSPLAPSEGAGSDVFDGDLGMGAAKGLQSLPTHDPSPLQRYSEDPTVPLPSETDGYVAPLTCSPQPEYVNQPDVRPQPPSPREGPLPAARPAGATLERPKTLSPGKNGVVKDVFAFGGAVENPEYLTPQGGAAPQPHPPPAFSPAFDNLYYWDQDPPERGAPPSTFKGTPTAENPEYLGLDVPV
# EXPERIMENT_DESCRIPTION: radiometric filter-binding kinase assay, Kinase HotSpot
# CONDITION_SUMMARY: compound 0.5 µM; ATP 10 µM
QUANTITY: residual activity (%)
Give bare numbers, in %.

Example results:
{"COMPOUND": "Nc1ncnc2[nH]nc(Nc3ccc(F)cc3)c12", "UNIT_INFO": "%", "residual activity": 101}
{"COMPOUND": "CC(C)N(CCC(=O)c1ccc2ccccc2c1)Cc1ccccc1", "UNIT_INFO": "%", "residual activity": 98.7}
{"COMPOUND": "CNc1cc2c(Nc3cccc(Br)c3)ncnc2cn1", "UNIT_INFO": "%", "residual activity": 28.9}
{"COMPOUND": "CCOC(=O)c1c(C)[nH]c(/C=C2\\C(=O)Nc3ccccc32)c1C", "UNIT_INFO": "%", "residual activity": 101}

Consider the following items and state reported residual activity for each.
1. Oc1cccc(-c2nc(N3CCOCC3)c3oc4ncccc4c3n2)c1
2. O=C1NC(=O)C(c2cn(CCCn3ccnc3)c3ccccc23)=C1Nc1ccccc1
3. CC#CC(=O)Nc1cc2c(Nc3ccc(F)c(Cl)c3)ncnc2cn1
4. CCC(=O)Nc1ccc2ncnc(Nc3cccc(Br)c3)c2c1
5. Cc1ccc(Nc2nccc(N(C)c3ccc4c(C)n(C)nc4c3)n2)cc1S(N)(=O)=O
6. CCCC(=O)Oc1ccc2[nH]c(C(=O)c3cc4ccccc4[nH]3)cc2c1
7. Cc1ccc(NC2=CC(=O)c3sc(C)nc3C2=O)cc1

[A]
1: 105; 2: 93.6; 3: 2.36; 4: 34; 5: 103; 6: 85.9; 7: 94.2

Parameters: items (list). Returns: residual activity for each item.
1. CCN(CC)CCNC(=O)c1c(C)[nH]c(/C=C2\C(=O)Nc3ccc(F)cc32)c1C
2. Cc1[nH]c(/C=C2\C(=O)Nc3ccc(S(=O)(=O)N(C)c4cccc(Cl)c4)cc32)c(C)c1C(=O)N1CCN(C)CC1

[A]
105
91.5

State recorded residual activity for all listed compounds.
1. COc1ccc2c(c[n+](C)c3c4cc5c(cc4ccc23)OCO5)c1OC
2. CO[C@H]1CC2CC[C@@H](C)[C@@](O)(O2)C(=O)C(=O)N2CCCC[C@H]2C(=O)OC([C@H](C)C[C@@H]2CC[C@@H](O)[C@H](OC)C2)CC(=O)[C@H](C)/C=C(\C)[C@@H](O)[C@@H](OC)C(=O)[C@H](C)C[C@H](C)/C=C/C=C/C=C/1C (stereo partly specified)
3. O=S(=O)(c1cccc2cnccc12)N1CCCNCC1
4. CC(=O)c1ccc(N2CCOCC2)cc1O
5. O=c1cc(N2CCOCC2)oc2c1ccc1ccccc12

[A]
1. 101
2. 97.3
3. 108
4. 98.2
5. 105

====

For each of the molecules below, state its residual activity.
# TARGET_OF_ASSAY: DSTYK (human)
# EXPERIMENT_DESCRIPTION: radiometric filter-binding kinase assay, Kinase HotSpot
# CONDITION_SUMMARY: compound 0.5 µM; ATP 10 µM
Give bare numbers, in %.

The cases that follow already have their residual activity on record.
{"SMILES_INPUT": "CCN(CC)CCNC(=O)c1c(C)[nH]c(/C=C2\\C(=O)Nc3ccc(Cl)cc32)c1C", "residual activity (%)": 105}
{"SMILES_INPUT": "Cc1ccc(Nc2nccc(N(C)c3ccc4c(C)n(C)nc4c3)n2)cc1S(N)(=O)=O", "residual activity (%)": 94.3}
{"SMILES_INPUT": "O=C1NC(=O)/C(=C/c2ccc3c(c2)OC(F)(F)O3)S1", "residual activity (%)": 89.3}
{"SMILES_INPUT": "CCC(=O)Nc1ccc2ncnc(Nc3cccc(Br)c3)c2c1", "residual activity (%)": 91.3}

Alright, here's another molecule for you.
[Q] What reported residual activity corresponds to `Oc1cccc(-c2nc(N3CCOCC3)c3oc4ncccc4c3n2)c1` on DSTYK (human)?
[A] 96.1

====

# TARGET_OF_ASSAY: ROCK1 (human)
# EXPERIMENT_DESCRIPTION: radiometric filter-binding kinase assay, Kinase HotSpot
# CONDITION_SUMMARY: compound 0.5 µM; ATP 10 µM
QUANTITY: residual activity (%)
Numbers only, in %.

{"SMILES_INPUT": "O=c1cc(N2CCOCC2)oc2c1ccc1ccccc12", "TARGET_OF_ASSAY": "ROCK1 (human)", "residual activity (%)": 94.2}
{"SMILES_INPUT": "Cc1ccc(S(=O)(=O)/C=C/C#N)cc1", "TARGET_OF_ASSAY": "ROCK1 (human)", "residual activity (%)": 93.2}
{"SMILES_INPUT": "N#C/C(=C(/N)Sc1ccc(N)cc1)c1ccccc1C(F)(F)F", "TARGET_OF_ASSAY": "ROCK1 (human)", "residual activity (%)": 104}
{"SMILES_INPUT": "COc1cc2ncnc(Nc3cccc(Cl)c3)c2cc1OC", "TARGET_OF_ASSAY": "ROCK1 (human)", "residual activity (%)": 95.9}

Quick request: residual activity for each listed item, please.
1. Cc1ccc(NC2=CC(=O)c3sc(C)nc3C2=O)cc1
2. c1ccc(-c2n[nH]cc2-c2ccnc3ccccc23)nc1

[A]
1. 100
2. 103

====

# TARGET_OF_ASSAY: STK3 (human)
# EXPERIMENT_DESCRIPTION: radiometric filter-binding kinase assay, Kinase HotSpot
# CONDITION_SUMMARY: compound 0.5 µM; ATP 10 µM
QUANTITY: residual activity (%)
One number for each entry, in %.

These recorded examples may help you get a feel for the data.
{"SMILES_INPUT": "O=S(=O)(c1cccc2cnccc12)N1CCCNCC1", "TARGET_OF_ASSAY": "STK3 (human)", "residual activity [%]": 90}
{"SMILES_INPUT": "Nc1ncnc2c1c(-c1ccc(Oc3ccccc3)cc1)cn2C1CCCC1", "TARGET_OF_ASSAY": "STK3 (human)", "residual activity [%]": 97.7}
{"SMILES_INPUT": "CC[n+]1c(/C=C/N(C)c2ccccc2)n(-c2ccccc2)c2ccc(-c3nc4ccccc4s3)cc21", "TARGET_OF_ASSAY": "STK3 (human)", "residual activity [%]": 98.9}
{"SMILES_INPUT": "N#CC(C#N)=C(N)/C(C#N)=C/c1ccc(O)cc1", "TARGET_OF_ASSAY": "STK3 (human)", "residual activity [%]": 95.2}
{"SMILES_INPUT": "CC(=O)c1ccc(N2CCOCC2)cc1O", "TARGET_OF_ASSAY": "STK3 (human)", "residual activity [%]": 98.9}
{"SMILES_INPUT": "Cc1ccc(NC2=CC(=O)c3sc(C)nc3C2=O)cc1", "TARGET_OF_ASSAY": "STK3 (human)", "residual activity [%]": 105}
{"SMILES_INPUT": "Oc1cccc(-c2nc(N3CCOCC3)c3oc4ncccc4c3n2)c1", "TARGET_OF_ASSAY": "STK3 (human)", "residual activity [%]": 105}
{"SMILES_INPUT": "Cc1[nH]c(/C=C2\\C(=O)Nc3ccc(S(=O)(=O)N(C)c4cccc(Cl)c4)cc32)c(C)c1C(=O)N1CCN(C)CC1", "TARGET_OF_ASSAY": "STK3 (human)", "residual activity [%]": 78.6}
{"SMILES_INPUT": "Cc1ccc(Nc2nccc(N(C)c3ccc4c(C)n(C)nc4c3)n2)cc1S(N)(=O)=O", "TARGET_OF_ASSAY": "STK3 (human)", "residual activity [%]": 95.4}
{"SMILES_INPUT": "CNc1cc2c(Nc3cccc(Br)c3)ncnc2cn1", "TARGET_OF_ASSAY": "STK3 (human)", "residual activity [%]": 99.9}

[Q] Can you look up the measured residual activity of `O=C1NC(=O)/C(=C/c2ccc3c(c2)OC(F)(F)O3)S1` for me?
[A] 100

====

Give residual activity for every item shown.
# TARGET_OF_ASSAY: PAK6 (human) (UniProt Q9NQU5)
# Sequence (Q9NQU5 whole entry, looked up): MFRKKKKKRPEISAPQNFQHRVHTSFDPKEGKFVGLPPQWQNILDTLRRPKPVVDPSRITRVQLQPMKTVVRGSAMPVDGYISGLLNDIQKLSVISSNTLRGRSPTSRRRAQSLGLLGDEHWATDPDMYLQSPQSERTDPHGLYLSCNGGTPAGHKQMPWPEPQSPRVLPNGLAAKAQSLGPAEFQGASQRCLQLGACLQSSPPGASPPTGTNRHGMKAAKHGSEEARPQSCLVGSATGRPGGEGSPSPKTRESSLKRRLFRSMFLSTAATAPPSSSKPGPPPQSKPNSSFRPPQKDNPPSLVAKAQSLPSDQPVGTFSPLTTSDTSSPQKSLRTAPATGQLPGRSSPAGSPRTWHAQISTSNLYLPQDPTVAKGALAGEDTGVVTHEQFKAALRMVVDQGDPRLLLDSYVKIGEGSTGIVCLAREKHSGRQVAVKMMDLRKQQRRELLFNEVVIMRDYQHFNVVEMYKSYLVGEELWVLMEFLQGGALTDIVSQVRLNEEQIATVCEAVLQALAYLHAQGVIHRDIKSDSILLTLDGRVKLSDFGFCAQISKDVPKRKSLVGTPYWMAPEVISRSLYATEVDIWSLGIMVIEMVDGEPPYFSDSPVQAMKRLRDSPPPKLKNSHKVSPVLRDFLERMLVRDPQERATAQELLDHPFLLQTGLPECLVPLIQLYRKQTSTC
# EXPERIMENT_DESCRIPTION: radiometric filter-binding kinase assay, Kinase HotSpot
# CONDITION_SUMMARY: compound 0.5 µM; ATP 10 µM
One number for each entry, in %.

Please review the entries below; each comes with its answer.
{"SMILES_INPUT": "CCN(CC)CCNC(=O)c1c(C)[nH]c(/C=C2\\C(=O)Nc3ccc(Cl)cc32)c1C", "TARGET_OF_ASSAY": "PAK6 (human) (UniProt Q9NQU5)", "UNIT_INFO": "%", "residual activity": 101}
{"SMILES_INPUT": "Cc1ccc(S(=O)(=O)/C=C/C#N)cc1", "TARGET_OF_ASSAY": "PAK6 (human) (UniProt Q9NQU5)", "UNIT_INFO": "%", "residual activity": 107}

Below are some molecules; for each one, tell me its residual activity.
1. O=C1NC(=O)C(c2cn(CCCn3ccnc3)c3ccccc23)=C1Nc1ccccc1
2. Nc1ncnc2c1c(-c1ccc(Oc3ccccc3)cc1)cn2C1CCCC1
3. Cc1ccc(NC2=CC(=O)c3sc(C)nc3C2=O)cc1
4. COc1cc2ncnc(Nc3cccc(Cl)c3)c2cc1OC

[A]
[105, 88.2, 110, 81.6]

Hi, could you look up residual activity for each item in my list?
1. COc1ccc2c(c[n+](C)c3c4cc5c(cc4ccc23)OCO5)c1OC
2. CCN(CC)C(=O)c1ccc(Nc2nc(OCC3CCCCC3)c3nc[nH]c3n2)cc1
3. N#C/C(=C(/N)Sc1ccc(N)cc1)c1ccccc1C(F)(F)F
4. O=S(=O)(c1cccc2cnccc12)N1CCCNCC1
5. O=C(Nc1cccc(Nc2nccc(Nc3cccc(C(F)(F)F)c3)n2)c1)C1CC1

[A]
1: 96.1; 2: 95.5; 3: 107; 4: 87; 5: 100
